assay: Inhibition of melanin formation in Melan-a cells after 5 days; format: functional, cell-based; conditions: 120 h
attribute-measured: IC50 (µM)
Write the value in µM as a bare number.

IC50 recorded for this compound, OC[C@H]1O[C@@H](Oc2ccc(O)cc2)[C@H](O)[C@@H](O)[C@@H]1O [ARBUTIN] , is 118

Recorded IC50 (compound `O=C(OCCc1ccccc1O)c1cc(O)c(O)c(O)c1` ): 13.7

Form: compound = `O=C(OCCc1cccc(O)c1)c1cc(O)c(O)c(O)c1` ; IC50 = 8.94

---

Provide the reported pIC50 of each item.
molecular target: Tyrosinase (Mus musculus) (UniProt P11344); experiment: Inhibition of tyrosinase in Melan-a cells
Sequence (P11344 whole entry, looked up): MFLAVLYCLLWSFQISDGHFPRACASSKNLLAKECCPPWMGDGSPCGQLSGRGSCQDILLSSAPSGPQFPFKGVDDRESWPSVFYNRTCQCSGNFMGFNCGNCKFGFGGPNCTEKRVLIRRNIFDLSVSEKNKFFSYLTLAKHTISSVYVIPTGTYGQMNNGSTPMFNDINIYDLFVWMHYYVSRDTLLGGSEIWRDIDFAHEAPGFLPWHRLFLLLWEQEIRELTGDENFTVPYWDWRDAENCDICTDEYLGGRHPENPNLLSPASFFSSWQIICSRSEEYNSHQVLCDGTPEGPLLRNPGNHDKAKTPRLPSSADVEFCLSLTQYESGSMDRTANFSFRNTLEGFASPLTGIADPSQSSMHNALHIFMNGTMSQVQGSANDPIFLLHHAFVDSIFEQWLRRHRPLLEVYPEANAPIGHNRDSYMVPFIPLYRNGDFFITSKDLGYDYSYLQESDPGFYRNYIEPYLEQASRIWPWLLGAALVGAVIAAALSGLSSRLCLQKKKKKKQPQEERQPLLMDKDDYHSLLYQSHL
// pIC50: -log10(molar conc.)

`O=C(OCCc1ccc(O)cc1)c1cc(O)c(O)c(O)c1` tested on Tyrosinase (Mus musculus) (UniProt P11344) gave pIC50: 5.31

With Tyrosinase (Mus musculus) (UniProt P11344) as the test system, `O=C(OCCc1cccc(O)c1)c1cc(O)c(O)c(O)c1` showed pIC50 of 4.82

Form: item `O=C(OCCc1ccccc1O)c1cc(O)c(O)c(O)c1` ; test system Tyrosinase (Mus musculus) (UniProt P11344); pIC50: 4.84
